Entries and their measured GI50 at 48 h follow.
experiment: Cytotoxicity against mitogen activated human peripheral blood lymphocytes assessed as cell growth inhibition incubated for 48 hrs by MTT assay; format: toxicity, cell-based, Lymphocyte
Could you give me the number in µM? Just the number is fine.

>  <compound>
O=C1CC(N2C(=O)/C(=C/C(Cl)=C/c3ccc([N+](=O)[O-])cc3)SC2=S)C(=O)N1c1ccc(Cl)cc1 (centres undefined)

>  <reported_endpoint>
GI50 at 48 h

>  <recorded_value>
28.9

$$$$
>  <compound>
COc1cccc2c1C(=O)c1c(O)c3c(c(O)c1C2=O)C[C@@](O)(C(=O)CO)C[C@@H]3O[C@H]1C[C@H](N)[C@H](O)[C@H](C)O1 [DOXORUBICIN]

>  <reported_endpoint>
GI50 at 48 h

>  <recorded_value>
0.5

$$$$

Turning to the following compound.
Query: Record request: GI50 at 48 h value, item O=C1CC(N2C(=O)/C(=C/C(Cl)=C/c3ccc([N+](=O)[O-])cc3)SC2=S)C(=O)N1c1ccc(O)cc1 (centres undefined)
Result: 51.2

###

system: HCT-116; assay: Anticancer activity against human HCT-116 cells assessed as cell growth inhibition incubated for 72 hrs by MTT assay; format: functional
reported_endpoint: GI50 (µM)
Supply the numeric figure in µM, leaving out any unit text.

Query: Name the reported GI50 value associated with the molecule `COc1cccc2c1C(=O)c1c(O)c3c(c(O)c1C2=O)C[C@@](O)(C(=O)CO)C[C@@H]3O[C@H]1C[C@H](N)[C@H](O)[C@H](C)O1`
Result: 0.57

Query: What value of GI50 has been reported for the following molecule? O=C1CC(N2C(=O)/C(=C/C(Cl)=C/c3ccc([N+](=O)[O-])cc3)SC2=S)C(=O)N1c1ccc(Cl)cc1 (centres undefined)
Result: 9.18

###

assay: Selectivity index, ratio of GI50 for human HaCaT cells to GI50 for human HeLa cells; format: toxicity; conditions: HaCaT cells versus HeLa cells, read-out: RatioGI50
reported_endpoint: selectivity ratio
Form rule: numeric answer, no unit written next to it.

Reference set, count: 5
>  <compound>
O=C1CC(N2C(=O)/C(=C/C(Cl)=C/c3ccc([N+](=O)[O-])cc3)SC2=S)C(=O)N1c1ccc(Cl)cc1 (centres undefined)

>  <selectivity ratio>
15

$$$$
>  <compound>
O=C1CC(N2C(=O)CSC2=S)C(=O)N1c1ccc(O)cc1 (centres undefined)

>  <selectivity ratio>
1

$$$$
>  <compound>
C=CCOc1ccccc1/C=C1\SC(=S)N(C2CC(=O)N(c3ccc(Cl)cc3)C2=O)C1=O (centres undefined)

>  <selectivity ratio>
2.1

$$$$
>  <compound>
O=C1Nc2ccccc2/C1=C1/SC(=S)N(C2CC(=O)N(c3ccc(Br)cc3)C2=O)C1=O (centres undefined)

>  <selectivity ratio>
1

$$$$
>  <compound>
O=C1Nc2ccc(Cl)cc2/C1=C1/SC(=S)N(C2CC(=O)N(c3ccc(Cl)cc3)C2=O)C1=O (centres undefined)

>  <selectivity ratio>
1.72

$$$$

Query: Report selectivity ratio for O=C1CC(N2C(=O)CSC2=S)C(=O)N1c1ccc(Cl)cc1 (centres undefined) please.
Result: 1

###

experiment: Cytotoxicity against mitogen activated human peripheral blood lymphocytes assessed as cell growth inhibition incubated for 24 hrs by MTT assay; format: toxicity, cell-based, Lymphocyte
Overview of recorded GI50 at 24 h for various compounds
Please state the figure in µM; there is no need to write the unit.

Past entries and their recorded results:
>  <compound>
O=C1CC(N2C(=O)/C(=C/C(Cl)=C/c3ccc([N+](=O)[O-])cc3)SC2=S)C(=O)N1c1ccc(Cl)cc1 (centres undefined)

>  <recorded_value>
36.8

$$$$
>  <compound>
O=C1CC(N2C(=O)/C(=C/C(Cl)=C/c3ccc([N+](=O)[O-])cc3)SC2=S)C(=O)N1c1ccc(O)cc1 (centres undefined)

>  <recorded_value>
67.1

$$$$

// next item, GI50 at 24 h requested
Query: Item under review: `COc1cccc2c1C(=O)c1c(O)c3c(c(O)c1C2=O)C[C@@](O)(C(=O)CO)C[C@@H]3O[C@H]1C[C@H](N)[C@H](O)[C@H](C)O1` . Reported GI50 at 24 h?
Result: 2.9

###

system: MDA-MB-231; experiment: Anticancer activity against human MDA-MB-231 cells assessed as cell growth inhibition incubated for 72 hrs by MTT assay; assay type: functional
reported_endpoint: GI50

>  <molecule>
COc1cccc2c1C(=O)c1c(O)c3c(c(O)c1C2=O)C[C@@](O)(C(=O)CO)C[C@@H]3O[C@H]1C[C@H](N)[C@H](O)[C@H](C)O1

>  <GI50>
5.95 µM

$$$$
>  <molecule>
C=CCOc1cccc(/C=C2\SC(=S)N(C3CC(=O)N(c4ccc(Cl)cc4)C3=O)C2=O)c1 (stereo not given)

>  <GI50>
> 100 µM

$$$$
>  <molecule>
O=C1CC(N2C(=O)CSC2=S)C(=O)N1c1ccc(Cl)cc1 (stereo not given)

>  <GI50>
> 100 µM

$$$$
>  <molecule>
O=C1Nc2ccc(Cl)cc2/C1=C1/SC(=S)N(C2CC(=O)N(c3ccc(Cl)cc3)C2=O)C1=O (stereo not given)

>  <GI50>
> 100 µM

$$$$
>  <molecule>
O=C1Nc2ccccc2/C1=C1/SC(=S)N(C2CC(=O)N(c3ccc(Cl)cc3)C2=O)C1=O (stereo not given)

>  <GI50>
> 100 µM

$$$$

Query: Reported GI50 for O=C1CC(N2C(=O)/C(=C/C(Cl)=C/c3ccc([N+](=O)[O-])cc3)SC2=S)C(=O)N1c1ccc(Cl)cc1 (stereo not given) : what is it?
Result: 6.45 µM

Query: Find the recorded GI50 belonging to O=C1Nc2ccccc2/C1=C1/SC(=S)N(C2CC(=O)N(c3ccc(Br)cc3)C2=O)C1=O (stereo not given) and report it.
Result: > 100 µM

Query: Reported GI50 for O=C1CC(N2C(=O)CSC2=S)C(=O)N1c1ccc(O)cc1 (stereo not given) : what is it?
Result: > 100 µM

Query: Query (molecule): O=C1CC(N2C(=O)/C(=C/C(Cl)=C/c3ccc([N+](=O)[O-])cc3)SC2=S)C(=O)N1c1ccc(O)cc1 (stereo not given) ; field requested: GI50
Result: 6.2 µM

Query: Can you look up the measured GI50 of C=CCOc1ccccc1/C=C1\SC(=S)N(C2CC(=O)N(c3ccc(Cl)cc3)C2=O)C1=O (stereo not given) for me?
Result: 98.6 µM

###

Each entry below carries its reported selectivity ratio.
assay: Selectivity index, ratio of GI50 for human HaCaT cells to GI50 for human U-251 cells; type: toxicity; conditions: HaCaT cells versus U-251 cells, read-out: RatioGI50
Answer using only a numeral; do not append any unit.

Take a look at these entries with their results.
>  <molecule>
C=CCOc1ccccc1/C=C1\SC(=S)N(C2CC(=O)N(c3ccc(Cl)cc3)C2=O)C1=O (stereo not given)

>  <recorded_value>
1.1

$$$$
>  <molecule>
O=C1Nc2ccccc2/C1=C1/SC(=S)N(C2CC(=O)N(c3ccc(Br)cc3)C2=O)C1=O (stereo not given)

>  <recorded_value>
1

$$$$
>  <molecule>
O=C1CC(N2C(=O)/C(=C/C(Cl)=C/c3ccc([N+](=O)[O-])cc3)SC2=S)C(=O)N1c1ccc(Cl)cc1 (stereo not given)

>  <recorded_value>
11.2

$$$$
>  <molecule>
O=C1CC(N2C(=O)CSC2=S)C(=O)N1c1ccc(Cl)cc1 (stereo not given)

>  <recorded_value>
0.98

$$$$

Proceeding to the next molecule to report its selectivity ratio.
Query: Tell me the measured selectivity ratio of O=C1Nc2ccc(Cl)cc2/C1=C1/SC(=S)N(C2CC(=O)N(c3ccc(Cl)cc3)C2=O)C1=O (stereo not given) , please.
Result: 1

###

test: Cytotoxicity against human HaCaT cells assessed as cell growth inhibition incubated for 72 hrs by MTT assay; format: toxicity, cell-based
# reported GI50 at 72 h; entries follow

>  <compound>
C=CCOc1cccc(/C=C2\SC(=S)N(C3CC(=O)N(c4ccc(Cl)cc4)C3=O)C2=O)c1 (stereo not given)

>  <recorded_value>
> 100 µM

$$$$

Query: Fill in the blank: the reported GI50 at 72 h of O=C1Nc2ccccc2/C1=C1/SC(=S)N(C2CC(=O)N(c3ccc(Cl)cc3)C2=O)C1=O (stereo not given) is ____.
Result: > 100 µM

Query: Value lookup for GI50 at 72 h; key = C=CCOc1ccccc1/C=C1\SC(=S)N(C2CC(=O)N(c3ccc(Cl)cc3)C2=O)C1=O (stereo not given)
Result: > 100 µM

Query: Recorded GI50 at 72 h of O=C1CC(N2C(=O)CSC2=S)C(=O)N1c1ccc(O)cc1 (stereo not given) , please.
Result: > 100 µM

Query: I have this compound here, O=C1Nc2ccccc2/C1=C1/SC(=S)N(C2CC(=O)N(c3ccc(Br)cc3)C2=O)C1=O (stereo not given) , and I need its recorded GI50 at 72 h.
Result: > 100 µM

Query: Need GI50 at 72 h of O=C1Nc2ccc(Cl)cc2/C1=C1/SC(=S)N(C2CC(=O)N(c3ccc(Cl)cc3)C2=O)C1=O (stereo not given) , thanks.
Result: > 100 µM
